Reference source: ChEMBL document CHEMBL4402517

Quick reference: viability at 0.063 mg/ml of the listed items.
Protocol details: Genotoxicity in Salmonella typhimurium TA1535 harboring pSK1002 assessed as survival at 0.063 mg/ml in absence of Sprague-Dawley rat liver S9 fraction metabolic activation by SOS/umu assay relative to control
Type: toxicity
Experimental parameters: salmonella enterica subsp. enterica serovar typhimurium, read-out: Survival
For clarity, give the value followed by its unit.

O=C(CCN1CCN(c2ccc(Cl)cc2)CC1)c1ccc(O)cc1	125%

Would you kindly look at the next entry?
Which viability at 0.063 mg/ml value belongs to `O=C(CCN1CCN(c2ccc(C(F)(F)F)cc2)CC1)c1ccc(O)cc1` ?
117%

* * *

Protocol details: Selectivity index, ratio of IC50 for African green monkey Vero cells to IC50 for Trypanosoma cruzi IRHOD/CO/2008/SN3;DTU 1 amastigote forms
Type: toxicity
Experimental parameters: read-out: Selectivity Index
Measure: selectivity ratio
Lab note: jot the number down without any unit.

Worked cases, selectivity ratio given:
COc1ccc(C(=O)CCNc2ccc(F)cc2)cc1	24.7
O=C(CCN1CCN(c2ccc(Cl)cc2)CC1)c1ccc(O)cc1	23.2
COc1ccc(C(=O)CCNCCc2ccc(C(F)(F)F)cc2)cc1	20.2
COc1ccc(C(=O)CCNc2ccc(Cl)cc2)cc1	24.1

Which selectivity ratio value belongs to `O=C(CCN1CCN(c2ccc(C(F)(F)F)cc2)CC1)c1ccc(O)cc1` ?
16.2

* * *

Quick reference: viability at 0.008 mg/ml of the listed items.
Protocol details: Genotoxicity in Salmonella typhimurium TA1535 harboring pSK1002 assessed as survival at 0.008 mg/ml in absence of Sprague-Dawley rat liver S9 fraction metabolic activation by SOS/umu assay relative to control
Type: toxicity
Experimental parameters: salmonella enterica subsp. enterica serovar typhimurium, read-out: Survival
For clarity, give the value followed by its unit.

O=C(CCN1CCN(c2ccc(Cl)cc2)CC1)c1ccc(O)cc1	128%

Which viability at 0.008 mg/ml value belongs to `O=C(CCN1CCN(c2ccc(C(F)(F)F)cc2)CC1)c1ccc(O)cc1` ?
133%

* * *

Protocol details: Genotoxicity in Salmonella typhimurium TA1535 harboring pSK1002 assessed as survival at 0.5 mg/ml in absence of Sprague-Dawley rat liver S9 fraction metabolic activation by SOS/umu assay relative to control
Type: toxicity
Experimental parameters: salmonella enterica subsp. enterica serovar typhimurium, read-out: Survival
Measure: viability at 0.5 mg/ml (%)
# unit: % | format: bare number

Which viability at 0.5 mg/ml value belongs to `O=C(CCN1CCN(c2ccc(C(F)(F)F)cc2)CC1)c1ccc(O)cc1` ?
155

* * *

Protocol details: Genotoxicity in Salmonella typhimurium TA1535 harboring pSK1002 assessed as umu gene induction at 0.001 mg/ml in absence of Sprague-Dawley rat liver S9 fraction metabolic activation by SOS/umu assay relative to control
Type: toxicity
Experimental parameters: salmonella enterica subsp. enterica serovar typhimurium, read-out: FC
Quick reference: fold induction at 0.001 mg/ml of the listed items.
Lab note: jot the number down without any unit.

O=C(CCN1CCN(c2ccc(C(F)(F)F)cc2)CC1)c1ccc(O)cc1	0.91

Would you kindly look at the next entry?
Which fold induction at 0.001 mg/ml value belongs to `O=C(CCN1CCN(c2ccc(Cl)cc2)CC1)c1ccc(O)cc1` ?
0.83

* * *

Quick reference: fold induction at 0.004 mg/ml of the listed items.
Protocol details: Genotoxicity in Salmonella typhimurium TA1535 harboring pSK1002 assessed as umu gene induction at 0.004 mg/ml in presence of Sprague-Dawley rat liver S9 fraction metabolic activation by SOS/umu assay relative to control
Format: toxicity, subcellular
Experimental parameters: salmonella enterica subsp. enterica serovar typhimurium, read-out: FC
Lab note: jot the number down without any unit.

O=C(CCN1CCN(c2ccc(C(F)(F)F)cc2)CC1)c1ccc(O)cc1	0.77

Would you kindly look at the next entry?
Which fold induction at 0.004 mg/ml value belongs to `O=C(CCN1CCN(c2ccc(Cl)cc2)CC1)c1ccc(O)cc1` ?
0.71

* * *

Protocol details: Genotoxicity in Salmonella typhimurium TA1535 harboring pSK1002 assessed as umu gene induction at 0.125 mg/ml in absence of Sprague-Dawley rat liver S9 fraction metabolic activation by SOS/umu assay relative to control
Format: toxicity
Experimental parameters: salmonella enterica subsp. enterica serovar typhimurium, read-out: FC
Quick reference: fold induction at 0.125 mg/ml of the listed items.
Lab note: jot the number down without any unit.

O=C(CCN1CCN(c2ccc(Cl)cc2)CC1)c1ccc(O)cc1	0.45

Which fold induction at 0.125 mg/ml value belongs to `O=C(CCN1CCN(c2ccc(C(F)(F)F)cc2)CC1)c1ccc(O)cc1` ?
0.7

* * *

Parameter 'readout' = IC50; parameter 'system' = UniProt P00441.
Sequence (P00441 whole entry): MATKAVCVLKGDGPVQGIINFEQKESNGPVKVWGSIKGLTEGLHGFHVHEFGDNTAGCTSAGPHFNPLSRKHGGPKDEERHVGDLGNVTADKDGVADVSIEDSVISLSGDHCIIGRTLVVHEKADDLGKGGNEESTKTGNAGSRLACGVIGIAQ

O=C(CCN1CCN(c2ccc(Cl)cc2)CC1)c1ccc(O)cc1	> 50 µM

Would you kindly look at the next entry?
For the record `O=C(CCN1CCN(c2ccc(C(F)(F)F)cc2)CC1)c1ccc(O)cc1` , what value of IC50 is listed for UniProt P00441?
> 50 µM

* * *

Protocol details: Genotoxicity in Salmonella typhimurium TA1535 harboring pSK1002 assessed as umu gene induction at 0.063 mg/ml in presence of Sprague-Dawley rat liver S9 fraction metabolic activation by SOS/umu assay relative to control
Assay type: toxicity, subcellular
Experimental parameters: salmonella enterica subsp. enterica serovar typhimurium, read-out: FC
Measure: fold induction at 0.063 mg/ml
Lab note: jot the number down without any unit.

O=C(CCN1CCN(c2ccc(Cl)cc2)CC1)c1ccc(O)cc1	0.87

Which fold induction at 0.063 mg/ml value belongs to `O=C(CCN1CCN(c2ccc(C(F)(F)F)cc2)CC1)c1ccc(O)cc1` ?
0.85

* * *

Protocol details: Genotoxicity in Salmonella typhimurium TA1535 harboring pSK1002 assessed as survival at 0.125 mg/ml in presence of Sprague-Dawley rat liver S9 fraction metabolic activation by SOS/umu assay relative to control
Assay type: toxicity, subcellular
Experimental parameters: salmonella enterica subsp. enterica serovar typhimurium, read-out: Survival
Quick reference: viability at 0.125 mg/ml of the listed items.
# unit: % | format: bare number

O=C(CCN1CCN(c2ccc(Cl)cc2)CC1)c1ccc(O)cc1	113

Which viability at 0.125 mg/ml value belongs to `O=C(CCN1CCN(c2ccc(C(F)(F)F)cc2)CC1)c1ccc(O)cc1` ?
138

* * *

Protocol details: Genotoxicity in Salmonella typhimurium TA1535 harboring pSK1002 assessed as survival at 0.004 mg/ml in absence of Sprague-Dawley rat liver S9 fraction metabolic activation by SOS/umu assay relative to control
Assay type: toxicity
Experimental parameters: salmonella enterica subsp. enterica serovar typhimurium, read-out: Survival
Quick reference: viability at 0.004 mg/ml of the listed items.
# unit: % | format: bare number

O=C(CCN1CCN(c2ccc(Cl)cc2)CC1)c1ccc(O)cc1	140

Would you kindly look at the next entry?
Which viability at 0.004 mg/ml value belongs to `O=C(CCN1CCN(c2ccc(C(F)(F)F)cc2)CC1)c1ccc(O)cc1` ?
127

* * *

Protocol details: Genotoxicity in Salmonella typhimurium TA1535 harboring pSK1002 assessed as survival at 0.016 mg/ml in presence of Sprague-Dawley rat liver S9 fraction metabolic activation by SOS/umu assay relative to control
Assay type: toxicity, subcellular
Experimental parameters: salmonella enterica subsp. enterica serovar typhimurium, read-out: Survival
Measure: viability at 0.016 mg/ml (%)
# unit: % | format: bare number

O=C(CCN1CCN(c2ccc(C(F)(F)F)cc2)CC1)c1ccc(O)cc1	110

Would you kindly look at the next entry?
Which viability at 0.016 mg/ml value belongs to `O=C(CCN1CCN(c2ccc(Cl)cc2)CC1)c1ccc(O)cc1` ?
106

* * *

Protocol details: Genotoxicity in Salmonella typhimurium TA1535 harboring pSK1002 assessed as survival at 0.125 mg/ml in absence of Sprague-Dawley rat liver S9 fraction metabolic activation by SOS/umu assay relative to control
Assay type: toxicity
Experimental parameters: salmonella enterica subsp. enterica serovar typhimurium, read-out: Survival
Quick reference: viability at 0.125 mg/ml of the listed items.
# unit: % | format: bare number

Which viability at 0.125 mg/ml value belongs to `O=C(CCN1CCN(c2ccc(C(F)(F)F)cc2)CC1)c1ccc(O)cc1` ?
122

Which viability at 0.125 mg/ml value belongs to `O=C(CCN1CCN(c2ccc(Cl)cc2)CC1)c1ccc(O)cc1` ?
198

* * *

Quick reference: viability at 0.002 mg/ml of the listed items.
Protocol details: Genotoxicity in Salmonella typhimurium TA1535 harboring pSK1002 assessed as survival at 0.002 mg/ml in presence of Sprague-Dawley rat liver S9 fraction metabolic activation by SOS/umu assay relative to control
Type: toxicity, subcellular
Experimental parameters: salmonella enterica subsp. enterica serovar typhimurium, read-out: Survival
For clarity, give the value followed by its unit.

O=C(CCN1CCN(c2ccc(Cl)cc2)CC1)c1ccc(O)cc1	111%

Would you kindly look at the next entry?
Which viability at 0.002 mg/ml value belongs to `O=C(CCN1CCN(c2ccc(C(F)(F)F)cc2)CC1)c1ccc(O)cc1` ?
108%
